# System Under Test: recombinant human NF-kappaB-inducing kinase (NIK/MAP3K14) (Homo sapiens)
# Sequence (Q99558 whole entry): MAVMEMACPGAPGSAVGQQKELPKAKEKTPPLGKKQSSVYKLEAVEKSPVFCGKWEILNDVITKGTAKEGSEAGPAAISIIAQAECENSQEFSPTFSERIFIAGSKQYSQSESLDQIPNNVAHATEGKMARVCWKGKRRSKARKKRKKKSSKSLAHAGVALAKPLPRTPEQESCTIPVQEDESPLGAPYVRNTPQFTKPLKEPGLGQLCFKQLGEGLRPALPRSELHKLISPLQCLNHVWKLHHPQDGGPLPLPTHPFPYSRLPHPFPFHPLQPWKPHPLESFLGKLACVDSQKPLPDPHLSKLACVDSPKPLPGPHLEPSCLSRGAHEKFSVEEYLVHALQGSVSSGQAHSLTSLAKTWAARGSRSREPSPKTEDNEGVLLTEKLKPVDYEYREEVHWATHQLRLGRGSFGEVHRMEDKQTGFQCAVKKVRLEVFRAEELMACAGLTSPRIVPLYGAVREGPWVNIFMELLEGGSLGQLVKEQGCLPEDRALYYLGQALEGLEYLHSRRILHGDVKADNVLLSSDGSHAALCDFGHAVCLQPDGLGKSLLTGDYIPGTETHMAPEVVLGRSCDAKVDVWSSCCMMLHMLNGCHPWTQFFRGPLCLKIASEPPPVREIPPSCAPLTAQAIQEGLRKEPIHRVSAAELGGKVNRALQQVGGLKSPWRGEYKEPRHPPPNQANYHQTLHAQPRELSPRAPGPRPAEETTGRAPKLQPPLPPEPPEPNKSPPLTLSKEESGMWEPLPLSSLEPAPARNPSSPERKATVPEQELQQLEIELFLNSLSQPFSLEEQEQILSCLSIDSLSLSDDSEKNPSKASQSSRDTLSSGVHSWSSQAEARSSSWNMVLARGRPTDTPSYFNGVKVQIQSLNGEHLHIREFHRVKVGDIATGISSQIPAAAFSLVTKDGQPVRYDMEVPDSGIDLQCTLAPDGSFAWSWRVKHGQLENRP
# Test Summary: Biological Assay B: inhibition of auto-phosphorylation of recombinant human NIK/MAP3K14 (AlphaScreen), performed at 2 locations
# Format: biochemical
# Experimental Conditions: location 2; AlphaScreen auto-phosphorylation; averaged values; read-out: Assay B location 2 IC50
pIC50: −log10 of the molar value.
Readout Label: pIC50

Here are 3 compounds together with their reported answers.
>>> obs_value("Cc1ccc(OC(F)(F)F)cc1Nc1nccc(-c2cnc3c(c2)C(C)(CO)CN3)n1 (stereo not shown)")
7.51
>>> obs_value("COc1cc(N2CC(N(C)C)C2)c(Cl)cc1Nc1nccc(-c2cnc3c(c2)C(C)(CO)CN3)n1 (stereo not shown)")
8.92
>>> obs_value("CC1(CO)CNc2ncc(-c3ccnc(Nc4cccc(Cl)c4Cl)n3)cc21 (stereo not shown)")
7.38

a. COc1cccc(Nc2nccc(-c3cnc4c(c3)C(C)(CO)CN4)n2)c1C (stereo not shown)
b. CC1(CO)CNc2ncc(-c3ccnc(Nc4cc(C#N)c(N5CCOCC5)cc4Cl)n3)cc21 (stereo not shown) [Compound 364]
c. COc1cc(OC2CCN(C)C2)ccc1Nc1nccc(-c2cnc3c(c2)C(C)(CO)CN3)n1 (stereo not shown)
d. COc1cc(C(=O)N2CCCCC2)ccc1Nc1nccc(-c2cnc3c(c2)C(C)(CO)CN3)n1 (single isomer, unassigned) [Compound 157]
Asked: # desc sort on pIC50 across 4 compounds Give the labels in the order requested.
Given back: b, a, c, d

1. COc1cc(N2CCOCC2)c(F)cc1Nc1nccc(-c2cnc3c(c2)C(C)(CO)CN3)n1 (single isomer, unassigned) [Compound 253]
2. COc1cc(N2CCOCC2)c(Cl)cc1Nc1nccc(-c2cnc3c(c2)C(C)(CO)CN3)n1 (single isomer, unassigned) [Compound 6S]
Asked: Min pIC50? 1 | 2 Record your answer as the label of the chosen record.
Given back: 1
(1: 7.37, 2: 8.62)

P. Cc1ccccc1Nc1nccc(-c2cnc3c(c2)C(C)(CO)CN3)n1 (stereo not shown)
Q. CC1(C)CNc2ncc(-c3ccnc(Nc4ccc(C(=O)NC5CNC5)cc4)n3)cc21
Asked: I need your help: which of the pair P , Q has higher pIC50? Could you answer with the label of the item you picked?
Given back: Q

a. CC(=O)NCc1cccc(Nc2nccc(-c3cnc4c(c3)C(C)(CO)CN4)n2)c1C (stereo not shown)
b. CC1(CO)CNc2ncc(-c3ccnc(Nc4ccccc4C(F)(F)F)n3)cc21 (stereo not shown)
Asked: Parameter check: reported pIC50 is higher for which label, a or b ? Identify your selection by its label.
Given back: a
(a: 7.47, b: 6.69)

a. COc1cc(OC2CCN(C)CC2)ccc1Nc1nccc(-c2cnc3c(c2)C(C)(CO)CN3)n1 (stereo not shown)
b. COC1CCN(C(=O)c2ccc(Nc3nccc(-c4cnc5c(c4)C(C)(C)CN5)n3)c(C)c2)CC1
Asked: Of the two listed items, which has the higher pIC50? First: a Second: b Answer with the label corresponding to your selection.
Given back: b
(b: 8.89, a: 7.58)

====

# System Under Test: recombinant human NF-kappaB-inducing kinase (NIK/MAP3K14) (Homo sapiens)
# Test Summary: Biological Assay B: inhibition of auto-phosphorylation of recombinant human NIK/MAP3K14 (AlphaScreen), performed at 2 locations
# Type: biochemical
# Experimental Conditions: location 1; AlphaScreen auto-phosphorylation; averaged values; read-out: Assay B location 1 IC50
Readout Label: IC50 (nM)

a. Cc1cc(N2CCOCC2)c(Cl)cc1Nc1nccc(-c2cnc3c(c2)C(C)(CO)CN3)n1 (single isomer, unassigned) [Compound 257]
b. COc1cc(C(=O)N2CCC(OC)CC2)c(Cl)cc1Nc1nccc(-c2cnc3c(c2)C(C)(CO)CN3)n1 (stereo not drawn) [Compound 296]
Asked: Would you mind telling me which has the lower recorded IC50 between a and b ? Lab log: write the label of the selected item as the result.
Given back: a

a. COCCN(C)c1cc(OC)c(Nc2nccc(-c3cnc4c(c3)C(C)(CO)CN4)n2)cc1Cl (stereo not drawn) [Compound 5]
b. COc1cc(N2CCN(C)CC2)c(Cl)cc1Nc1nccc(-c2cnc3c(c2)C(C)(CO)CN3)n1 (single isomer, unassigned) [Compound 303]
Asked: Record comparison, field IC50: mark the lower of a and b . Indicate your choice by writing its label.
Given back: a
(a: 6.3 nM, b: 13.8 nM)

Origin of measurements: patent US11236084B2
